All values here come from ChEMBL document CHEMBL1201862.

tested on: MDA-MB-435; test: NCI tumour cell line growth inhibition, 48 h
Activity calls are given as the source filed them. Rule as the data show it: active = GI50 up to about 1.1 µM and inactive = higher.
I'd be grateful if you could share measured GI50 for these entries.

These solved cases illustrate the format of a correct answer.
Recorded GI50 (compound CN1C2CC(=O)CC1[C@H](O)[C@@H]2O ): > 100 µM (inactive)

The compound identified as Cc1ccc([N+](=O)[O-])c2c(NCCNC(=O)Cn3ccnc3[N+](=O)[O-])ccnc12 registered its GI50 at 94.6 µM (inactive)

GI50 reported for this compound O=C1OC(c2ccccc2)=N/C1=C\c1ccc(Br)cc1 : > 100 µM (inactive)

The measured GI50 associated with Cc1c(C#N)c2nnn(-c3ccc([N+](=O)[O-])cc3)c(=O)n2c1-c1ccccc1 reads 13 µM (inactive)

As a next step, examine the compound that follows.
Kindly note the recorded GI50 for O=C(c1cccc2ccccc12)C1(Br)S(=O)(=O)OCCOS1(=O)=O , which is > 100 µM (inactive)

====

tested on: OVCAR-4; test: NCI tumour cell line growth inhibition, 48 h
Calls of active or inactive are those of the source. No stated cut-off is given here; in the data, active = GI50 up to about 1.1 µM and inactive = higher.
A correct response names exactly one class from Yes = active, No = inactive

Outcome? COC(=O)C1=C(C)NC2=C(C(=O)c3ccccc32)C1c1c[nH]nc1-c1ccccc1 (stereo unspecified)
No

Others:
Recorded test call requested for O[C@]12CCCC[C@H]1CCC2
No

Record lookup: outcome of this test for CCOc1cc(-c2nc3ccccn3c2/N=C/c2cc(Br)ccc2O)ccc1O ?
No

====

So I've got a bunch of compounds here, and I need their GI50 values.
test system: SF-295; assay: NCI tumour cell line growth inhibition, 48 h
The source made the active and inactive calls. No stated cut-off is given here; in the data, active = GI50 up to about 1.1 µM and inactive = higher.

Solved entries:
Measured GI50, CCN(CC)c1ccc(C2N3CCCCC3[C@@H]3c4[nH]c5ccccc5c4CCN23)cc1 (stereo partly specified) : 53.7 µM (inactive)

For reference, reported GI50 for CCOP(=O)(Cc1nc(C#N)c(N)o1)OCC stands at > 100 µM (inactive)

Summary for this compound, C=C1C(=O)O[C@H]2[C@H]1[C@H](OC(=O)/C(C)=C\C)C[C@]1(CO1)[C@@H]1[C@H](OC(C)=O)C=C(C)[C@]21O [EUPAROTIN ACETATE] : GI50 is > 83.9 µM (inactive)

Would you mind giving GI50 for every compound in the list below?
1. CCOC(=O)N[C@@H]1C(CC(=O)OC)O[C@H]2OC(C)(C)O[C@H]21 (stereo partly specified)
2. O=C(c1ccsc1)c1nccc2c1cnc1ccccc12
3. O=C(CSCC(=O)N/N=C\c1ccc(F)cc1F)N/N=C\c1ccc(F)cc1F
4. O=C(c1cc(Cl)ccc1Cl)N1CCN(c2cccc(Cl)c2)CC1
5. O=c1c2ncn(C3CC(O)C(CO)O3)c2nnn1Cc1ccccc1[N+](=O)[O-] (stereo unspecified)
6. COC(=O)C1=C(C)NC2=C(C(=O)c3ccccc32)C1c1c[nH]nc1-c1ccccc1 (stereo unspecified)

1. > 100 µM (inactive)
2. 45.5 µM (inactive)
3. > 100 µM (inactive)
4. 7.55 µM (inactive)
5. > 100 µM (inactive)
6. > 100 µM (inactive)

====

tested on: HCC 2998; test: NCI tumour cell line growth inhibition, 48 h
Activity calls are given as the source filed them. No stated cut-off is given here; in the data, active = GI50 up to about 1.1 µM and inactive = higher.
ENDPOINT: GI50

# GI50 (compound: Clc1nc(Cl)c(Cc2ccccc2)c(Cl)n1 ) is 13.7 µM (inactive)

Item: CCN(CC)c1ccc2cc(-c3nnc(-c4ccccc4O)o3)c(=O)oc2c1 | GI50: 13.6 µM (inactive)

Query [O-][S+]1c2ccccc2N=C(c2ccc3ccccc3c2)CC1c1ccccc1 (stereo unspecified) yields GI50 of 21.9 µM (inactive)

Per the record, O=C1CN(C(=O)C2CCCN2C(=O)C2CCCN2)C(=O)CN1 (stereo unspecified) has GI50 of > 100 µM (inactive)

Looking up CC1=CC(=O)/C(=C/n2c(=S)[nH]c3cc(C)ccc32)C(=O)O1 , I see its GI50 listed as > 100 µM (inactive)

Continuing:
Query Oc1cnc2c(O)cccc2c1 yields GI50 of 43.4 µM (inactive)

====

test system: HCT-116; assay: NCI tumour cell line growth inhibition, 48 h
The source made the active and inactive calls. No stated cut-off is given here; in the data, active = GI50 up to about 1.1 µM and inactive = higher.
Select the matching outcome among Yes for active, No for inactive

Please let me know the test result on file for COC(=O)c1ccc(/C=N/c2ccc(S(N)(=O)=O)cc2)cc1 .
No

I would be grateful if you could indicate the recorded call for CCOP(=O)(OCC)/C(C#N)=C\c1ccc(OC(C)=O)cc1 .
No

Tell me the recorded outcome of this test for CNC(=O)CC1NC(=O)c2csc(n2)-c2ccc(-c3nc(C4=NC(C(=O)N5CCCC5C(N)=O)CO4)cs3)nc2-c2csc(n2)-c2csc(n2)C(C(C)C)NC(=O)CNC(=O)c2csc(n2)C(C(C)C)NC(=O)c2nc1sc2C (centres undefined) .
Yes

Name the outcome recorded for CN(N=O)C(=N)NC(=O)c1ccccc1 in the assay.
No

Fill in: this test's call for C/C(=N\N=C(\N)S)c1ccc(Oc2ccccc2)cc1 is ___
No

What classification did C[N+]1(C)C/C(=C\c2ccc(O)cc2)C(=O)/C(=C/c2ccc(O)cc2)C1 end up with in this test?
No

Each compound tested received a call. Report the one for Cc1cc2c(=O)c3ccc(Cl)cc3[nH]c2c(C(N)=O)c1C .
No

What was the test verdict on CC12CCC([C@H](Nc3cc(C(F)(F)F)cc(C(F)(F)F)c3)C1=O)C2(C)C (some centres undefined) ?
No

We next turn to a different compound, shown below.
Test call for this compound, please: Cc1ccc2c(c1)[nH]c(=S)n2C=C1C(=O)CC(C)(C)CC1=O
No

====

test system: 786-0; assay: NCI tumour cell line growth inhibition, 48 h
Calls of active or inactive are those of the source. No stated cut-off is given here; in the data, active = GI50 up to about 1.1 µM and inactive = higher.
ENDPOINT: GI50

// for each compound in input: emit GI50
1. Cc1ccc(C)c(NC(=O)/C(=N\N)C(c2cnc3ccc([N+](=O)[O-])cc3n2)[N+](=O)[O-])c1 (stereo not given)
2. CC(=O)NC1C(OCc2ccccc2)OC(CO)C(O)C1OCC(=O)NC(C)C(=O)NC(CCC(=O)NCCCCCC(=O)Nc1ccc2c(c1)CN1C(=O)c3ccccc3C1=N2)C(N)=O (stereo not given)
3. C/C=C(\C)C(=O)N1c2ccccc2CC1c1c(C)[nH]c2ccccc12 (stereo not given)
4. CCOP(=O)(OCC)/C(F)=C/c1ccccc1
5. O=c1c2ncn(C3CC(O)C(CO)O3)c2nnn1Cc1ccccc1[N+](=O)[O-] (stereo not given)
6. O=C(C1OC1c1cccc([N+](=O)[O-])c1)C12CC3CC(CC(C3)C1)C2 (stereo not given)
7. COc1cc(C2c3cc4c(cc3[C@@H](NCCN3CCCCC3)C3COC(=O)[C@H]23)OCO4)cc(OC)c1O (stereo not given in full)

1: > 100 µM (inactive); 2: 82.8 µM (inactive); 3: > 100 µM (inactive); 4: > 100 µM (inactive); 5: > 100 µM (inactive); 6: 2.69 µM (inactive); 7: 0.179 µM (active)

Each of the following entries comes with a recorded value; kindly state GI50 for each.
1. Cc1ccc(CC(=O)Nc2ccc(NC(=O)CNC(=O)/C=C/c3ccc(-c4ccccc4)cc3)cc2C(=O)c2ccccc2)cc1
2. COc1ccccc1C(=O)OCC1CCCN2CCCCC12 (stereo not given)
3. CC(=O)O[C@H]1CC[C@H]2[C@@H]3CCC4=CC(=O)C=C[C@]4(O)[C@H]3CC[C@]12C
4. O=C(O)/C=C/n1c2ccccc2c(=O)c2ccccc21
5. CCCOP1(=O)C=CC(Cl)=C(C)C1 (stereo not given)
6. CCCCCCCCCCCCCCCC(=O)OCC(O)C1OC(=O)C(O)=C1O (stereo not given)
7. NC(=O)C(=Cc1ccc(CP(=O)(O)O)cc1)C(N)=O

["2.28 µM (inactive)", "> 100 µM (inactive)", "50.6 µM (inactive)", "> 100 µM (inactive)", "27.7 µM (inactive)", "19.6 µM (inactive)", "> 100 µM (inactive)"]

Working through the 3 compounds below one at a time, give GI50 for each.
1. O=C(c1cccc2ccccc12)C1(Br)S(=O)(=O)OCCOS1(=O)=O
2. CCOC(=O)C1=CNC2=N[C@H]3CCCC[C@@H]3N2C1=O
3. CCOC(=O)C(Cl)(Cl)/S(=N\S(=O)(=O)c1ccccc1)NC(=O)c1ccccc1 (stereo not given)

1. > 100 µM (inactive)
2. > 100 µM (inactive)
3. > 100 µM (inactive)

Would you mind listing GI50 for each of the following compounds?
1. c1ccc2nc(-c3ccc4c(c3)OCO4)ccc2c1
2. C=CCNC(=S)N/C=C(\C(=O)OCC)C(=O)C(=O)OCC
3. CCOC(=O)N[C@@H]1C(CC(=O)OC)O[C@H]2OC(C)(C)O[C@H]21 (stereo not given in full)

76.7 µM (inactive)
> 100 µM (inactive)
> 100 µM (inactive)
